Cited source: PubChem BioAssay (NCI)

Please respond with reported TGI for every item in the list.
- Tested on: UACC-257 melanoma
- assay explanation: NCI tumour cell line growth inhibition, 48 h

# annotated cases, reported TGI shown
{"compound": "COc1ccc(-c2onc(N)c2-c2cc(OC)c3c(c2)OCO3)cc1", "readout": "TGI", "result": "> 100 µM"}
{"compound": "O=c1[nH]nc(-c2ccccc2)n1/N=C/c1ccc([N+](=O)[O-])cc1", "readout": "TGI", "result": "> 100 µM"}
{"compound": "O=C(O)CCC(=O)Nc1ccc2ccccc2c1", "readout": "TGI", "result": "> 100 µM"}
{"compound": "CC(=O)OCC1OC(NC(=S)N/N=C2\\CC(c3ccccc3)Oc3ccccc32)C(OC(C)=O)C(OC(C)=O)C1OC(C)=O (configuration not stated)", "readout": "TGI", "result": "> 100 µM"}
{"compound": "CC(C)(CO)N1CCN(C(=S)Nc2ccccc2)CC1", "readout": "TGI", "result": "> 100 µM"}

For each entry beneath this line, provide reported TGI.
1. C[N+](C)(C)CCCSc1nc2ccccc2[nH]1
2. Cc1cc2c(cc1C(=O)CCC(=O)O)CC1(C2)Cc2cc(C)c(C(=O)CCC(=O)O)cc2C1
3. CC(C)(C)c1cc(CCC(=O)Nc2ccc(Cl)cc2)nc(NC#N)n1
4. O=[N+]([O-])c1ccc(C=NC2CCCCC2)cc1

1: > 100 µM; 2: > 100 µM; 3: > 100 µM; 4: > 100 µM

For each entry beneath this line, provide reported TGI.
1. CC(C)(C)/C(=N\Nc1nc2ccccc2[nH]1)c1ccccn1
2. COc1ccccc1NC(=S)Nc1cc(C)cc(C)n1
3. COC(=O)/C=C(/C=C1/C(C#N)=C(N)N(c2ccc(Cl)cc2)C1(C)/C(=C/C(=O)OC)C(=O)OC)C(=O)OC (configuration not stated)
4. N#Cc1c(=O)n(-c2ccccc2)c(O)c2c(N)n[nH]c12
5. OCCCNc1nc(=S)[nH]c2[nH]ncc12
6. COc1cc(/C=N\N(C)C)cc(/C=N/N(C)C)c1O

1: > 100 µM; 2: > 100 µM; 3: > 100 µM; 4: > 100 µM; 5: > 100 µM; 6: 98.5 µM

For each entry beneath this line, provide reported TGI.
1. CCCC/C=C/C/C=C/CCCCCCCCC(=O)OCC1CCCN2CCCCC12 (configuration not stated)
2. CN(C)CCNC(=O)c1cccc2ccc(-c3ccncc3)nc12

["> 100 µM", "6.66 µM"]
